Molecular target: mature plasmepsin 4 of Plasmodium berghei (PbPM4), auto-matured from semi-proPbPM4 (Plasmodium berghei ANKA)
Assay: enzyme inhibition kinetics (Ki of competitive inhibition); initial cleavage velocities of a chromogenic peptide substrate at varied inhibitor concentration, spectrophotometric; proPbPM4 pre-incubated in 100 mM sodium citrate pH 5.0, 37°C, 5 min; tight-binding or non-tight-binding competitive fit
Where no end group is shown, it is not given here.
Quick rule for you: Ki under 500 nM gets YES, anything else gets NO.

Some solved cases for reference:
* KPFSLLQF (not fully specified (residue 5); printed as KPFSLΨLQF; also: Ψ pseudopeptide bond between L5 and L6) [compound 2 (KPFSLΨLQF), peptidomimetic inhibitor designed for PfPM1] | YES
* KPYEFRQF (not fully specified (residue 5); printed as KPYEFΨRQF; also: Ψ pseudo-peptide bond between F5 and R6) [compound 1 (KPYEFΨRQF), peptidomimetic inhibitor designed for PbPM4] | NO
* KPFELAWT (not fully specified (residue 5); printed as KPFELΨAWT; also: Ψ pseudopeptide bond between L5 and A6) [compound 7 (KPFELΨAWT), peptidomimetic inhibitor designed for PmPM4] | NO

I wonder whether KPLEFYRV (not fully specified (residue 5); printed as KPLEFΨYRV; also: Ψ pseudopeptide bond between F5 and Y6) [compound 6 (KPLEFΨYRV), peptidomimetic inhibitor designed for PoPM4] has Ki below 500 nM. Can you tell?
YES

I wonder whether KPLEFFRV (not fully specified (residue 5); printed as KPLEFΨFRV; also: Ψ pseudopeptide bond between F5 and F6) [compound 5 (KPLEFΨFRV), peptidomimetic inhibitor designed for PvPM4] has Ki below 500 nM. Can you tell?
YES
